- Test system: MolM14
- procedureSummary: XTT cell viability assay, MolM14
- Assay type: cell-based, human
- measurementParameters: Homo sapiens, MOLM-14; XTT assay (48 h); standard deviation of 10%; read-out: EC50 (μM) AML MolM14
quantityKind: EC50 (µM)

Recorded results for 4 compounds are shown here.
- structureSmiles: "O=C(Nc1nc2ccc([N+](=O)[O-])cc2s1)Nc1ccccc1Cl"
  targetSystem: "MolM14"
  EC50 (µM): 10
- structureSmiles: "Cc1ccc2nc(NC(=O)Nc3ccccc3Cl)sc2c1"
  targetSystem: "MolM14"
  EC50 (µM): 10
- structureSmiles: "O=C(Nc1cccc(Cl)c1)Nc1nc2ccc([N+](=O)[O-])cc2s1"
  targetSystem: "MolM14"
  EC50 (µM): 4
- structureSmiles: "O=C(Nc1ccccc1)Nc1nc2ccccc2[nH]1"
  targetSystem: "MolM14"
  EC50 (µM): 20

1 = CCOc1ccc2nc(NC(=O)Nc3ccccc3C)sc2c1
2 = O=C(Nc1ccc(Cl)cc1)Nc1nc2ccccc2[nH]1
For the two items 1 and 2 , which reports the higher EC50 value? Identify your selection by its label. 2

###

- System: K562
- procedureSummary: XTT cell viability assay, K562
- Format: cell-based, human
- measurementParameters: XTT assay (48 h); standard deviation of 10%; read-out: EC50 (μM) CML K562
quantityKind: EC50

Any idea what EC50 was measured for O=C(Nc1ccc([N+](=O)[O-])cc1O)Nc1ccccc1Br [SB-225002, reference compound] ? > 100 µM

###

Property: EC50; scope: individual compounds
- System: 786R
- procedureSummary: XTT cell viability assay, 786R (sunitinib-resistant)
- Type: cell-based, human
- measurementParameters: Homo sapiens, 48 h, XTT assay (48 h); sunitinib-resistant; standard deviation of 10%; read-out: EC50 (μM) Kidney 786R
Return type: number; implicit unit µM.

- structureSmiles: "O=C(Nc1cccc(Cl)c1)Nc1nc2ccc([N+](=O)[O-])cc2[nH]1"
  EC50 / µM: 4
- structureSmiles: "O=C(Nc1cc(Cl)cc(Cl)c1)Nc1nc2ccc([N+](=O)[O-])cc2s1"
  EC50 / µM: 5
- structureSmiles: "O=C(Nc1nc2ccc([N+](=O)[O-])cc2s1)Nc1ccccc1Br"
  EC50 / µM: 14
- structureSmiles: "O=C(Nc1ccc(Br)cc1)Nc1nc2ccc([N+](=O)[O-])cc2s1"
  EC50 / µM: 5

Tell me the measured EC50 of "O=C(Nc1nc2ccc([N+](=O)[O-])cc2s1)Nc1ccccc1Cl" , please. 8

Tell me the measured EC50 of "O=C(Nc1cccc(Cl)c1)Nc1nc2ccc([N+](=O)[O-])cc2s1" , please. 2

###

- procedureSummary: Pharmacokinetics after oral gavage in mice
- Format: in vivo
- measurementParameters: mouse, in vivo, po, 50 mg/kg, oral gavage 50 mg/Kg, read-out: AUC lastPO (converted)
quantityKind: AUC

// returns reported AUC for input O=C(Nc1cccc(Cl)c1)Nc1nc2ccc([N+](=O)[O-])cc2s1 [Compound #1] ~1420 ng·h/mL
